// reported pEC50 for each item listed
# STUDY_TARGET: T1, CD73 on the surface of human tumor cells (human, UniProt P21589 27-549)
# T1 chain: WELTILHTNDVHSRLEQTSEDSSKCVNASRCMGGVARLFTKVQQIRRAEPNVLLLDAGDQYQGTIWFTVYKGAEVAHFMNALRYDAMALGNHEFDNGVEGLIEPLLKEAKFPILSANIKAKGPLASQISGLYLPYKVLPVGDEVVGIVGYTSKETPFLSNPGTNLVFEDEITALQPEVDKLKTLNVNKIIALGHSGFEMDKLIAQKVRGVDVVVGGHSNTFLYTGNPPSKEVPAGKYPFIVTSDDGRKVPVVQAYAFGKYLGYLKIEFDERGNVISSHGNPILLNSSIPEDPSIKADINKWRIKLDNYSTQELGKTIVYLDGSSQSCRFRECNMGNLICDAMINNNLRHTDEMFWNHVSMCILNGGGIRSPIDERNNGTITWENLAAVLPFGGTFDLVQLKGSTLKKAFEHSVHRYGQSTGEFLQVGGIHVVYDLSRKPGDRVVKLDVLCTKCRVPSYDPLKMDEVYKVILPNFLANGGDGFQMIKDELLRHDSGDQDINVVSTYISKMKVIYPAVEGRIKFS
# EXPERIMENT_DESCRIPTION: FACS; NCI-H1299 cells, right table
FYI, pEC50 means -log10 of a concentration in mol per litre.

Would you please look over these solved cases?
Input line: May I ask what pEC50 has been recorded for Hu002c-10 (antibody, V domains shown) VH: QVQLVQSGAEVKKPGASVKVSCKASGYTLTSYWMHWVRQAPGQGLEWIGEINPSQGRSNYNEKFKSKVTLTVDRSTSTVYMELSSLRSEDTAVYYCARRGVSGNYFDYWGQGTLVTVSS VL: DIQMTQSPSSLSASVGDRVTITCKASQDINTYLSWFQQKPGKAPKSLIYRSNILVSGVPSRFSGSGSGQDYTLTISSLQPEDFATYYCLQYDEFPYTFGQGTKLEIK ?
Output line: 9.12

Input line: Same question, Hu002c-14 (antibody, V domains shown) VH: QVQLVQSGAEVKKPGASVKVSCKASGYTLTSYWMHWVKKAPGQGLEWIGEINPSQGRSNYNEKFKSKVTLTVDRSTSTVYMELSSLRSEDTAVYYCARRGVSGNYFDYWGQGTLVTVSS VL: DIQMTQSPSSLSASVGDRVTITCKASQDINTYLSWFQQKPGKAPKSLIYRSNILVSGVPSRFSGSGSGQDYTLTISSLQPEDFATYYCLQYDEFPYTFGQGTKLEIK this time
Output line: 9.09

Input line: Query mAb002c-VH-QG/VK-SG (antibody, V domains shown) VH: QVQLQQPGAELVKPGASVRLSCKASGYTLTSYWMHWVKKRPGQGLEWIGEINPSQGRSNYNEKFKSKATLTVDRSSSTVYMQLGSLTSEDSAVYYCARRGVSGNYFDYWGQGTTLTVSS VL: DIKMTQSPSSMYASLGERVTMTCKASQDINTYLSWFQQKPGKSPKTLIYRSNILVSGVPSRFSGSRSGQDYYLTITSLEYEDMGIYYCLQYDEFPYTFGGGTKLELK next
Output line: 9.24

Switching to the query record.
Input line: What does the data say about its pEC50? Entry: Hu002c-15 (antibody, V domains shown) VH: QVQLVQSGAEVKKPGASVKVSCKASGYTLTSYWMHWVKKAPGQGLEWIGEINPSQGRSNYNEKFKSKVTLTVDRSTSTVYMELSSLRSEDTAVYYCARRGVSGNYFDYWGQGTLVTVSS VL: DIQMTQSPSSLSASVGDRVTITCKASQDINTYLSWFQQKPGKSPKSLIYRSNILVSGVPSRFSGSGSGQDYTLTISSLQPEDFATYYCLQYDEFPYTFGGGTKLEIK
Output line: 9.09
